- target_system: β-lactame receptor (RSA) (Staphylococcus aureus)
- Construct: made in house
- Sequence (P18357 331-585 limits assumed): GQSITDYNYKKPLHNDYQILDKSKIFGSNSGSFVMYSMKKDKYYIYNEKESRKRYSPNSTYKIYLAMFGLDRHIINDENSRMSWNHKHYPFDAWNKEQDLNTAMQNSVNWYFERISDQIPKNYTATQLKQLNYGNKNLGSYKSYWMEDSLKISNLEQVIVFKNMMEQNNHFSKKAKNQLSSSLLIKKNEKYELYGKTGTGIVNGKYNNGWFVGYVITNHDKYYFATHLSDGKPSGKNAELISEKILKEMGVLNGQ
- Type: binding
- details: milk; β-lactames; positive when ratio test/control <= 1
Field: Detection limit: Concentration. Provide a value for each of the compounds that follow.
I'd appreciate it if you wrote the number followed by its unit.

See these solved cases before continuing.
>>> data_value("CC1(C)S[C@@H]2[C@H](NC(=O)Cc3ccccc3)C(=O)N2[C@H]1C(=O)O")
"2 ppb"
>>> data_value("CC(=O)OCC1=C(C(=O)O)N2C(=O)[C@@H](NC(=O)CSc3ccncc3)[C@H]2SC1")
"8 ppb"
>>> data_value("CO/N=C(\\C(=O)N[C@@H]1C(=O)N2C(C(=O)O)=C(CSC(=O)c3ccco3)CS[C@H]12)c1csc(N)n1")
"10 ppb"

Give Detection limit: Concentration for all compounds that follow.
1. CC1(C)S[C@@H]2[C@H](NC(=O)[C@H](N)c3ccccc3)C(=O)N2[C@H]1C(=O)O
2. CC1(C)S[C@@H]2[C@H](NC(=O)[C@H](N)c3ccc(O)cc3)C(=O)N2[C@H]1C(=O)O

Result:
4 ppb
4 ppb
